- Test system: SW-620 colon
- Experimental Protocol: NCI tumour cell line growth inhibition, 48 h
I'd be grateful if you could share measured TGI for these entries.

Past entries and their recorded results:
1. O=c1ncccn1[C@@H]1O[C@H](CO)[C@H](O)C1O (stereo partly specified) ... > 100 µM
2. O=S(=O)(Nc1ccc(Br)cc1)c1ccc(-c2cnc(C3CC3)o2)cc1 ... 12.3 µM
3. CCc1cccc(C)c1NS(=O)(=O)c1ccccc1 ... > 100 µM
4. O=c1[nH]/c(=C/c2ccc(OCc3ccccc3)cn2)c(=O)[nH]/c1=C/c1ccccc1 ... > 100 µM
5. O=C1OCC2=C1C(c1cccc(F)c1)c1cc3c(cc1N2CCO)OCO3 (stereo unspecified) ... > 50 µM

Kindly give each listed record's TGI.
1. CC(=O)c1c(-c2cccc3ccccc23)c(C#N)c(=S)n(C2OC(CO)C(O)C(O)C2O)c1C (stereo unspecified)
2. NC(=O)Nc1c(Cl)cc(S(N)(=O)=O)cc1Cl
3. O=C1C[C@H]2CCCN2[C@@H](c2ccccc2)C1
4. N#CC(N)=Nc1ccccc1
5. CC(=O)O[C@H]1CC(C)(C)C(=C=C/C(C)=C/C=C/C=C/C=C(C)/C=C2C=C(/C=C/[C@@]34O[C@]3(C)C[C@@H](O)CC4(C)C)C(=O)O/2)[C@](C)(O)C1

Response:
["> 100 µM", "> 100 µM", "> 100 µM", "> 100 µM", "> 100 µM"]

Kindly give each listed record's TGI.
1. CCNCCNC(=O)c1ccc(I)cc1
2. COc1ccc2c(c1)C(=O)/C(=C/c1cccc(OCC(=O)c3ccccc3)c1)CC2
3. Nc1ncn([C@@H]2S[C@H](CO)[C@@H](O)[C@@H]2F)c(=O)n1
4. c1ncn(C23C4C5C6C4C2C6C53)n1 (stereo unspecified)

Response:
> 100 µM
> 100 µM
> 100 µM
> 100 µM

* * *

- System: OVCAR-8 ovarian
- Experimental Protocol: NCI tumour cell line growth inhibition, 48 h
I'd be grateful if you could share measured TGI for these entries.

1. C/C=C/C(C#N)O[Si](C)(C)C (stereo unspecified) ... > 100 µM
2. COc1ccc([C@H]2[C@H]3COC(=O)[C@H]3C(C#N)=C3Sc4ccccc4N32)cc1 ... > 100 µM
3. O=C(/C=C(/C=C/c1ccc2[nH]ccc2c1)OB(F)F)/C=C/c1ccc2[nH]ccc2c1 ... > 100 µM
4. C/C(CC(O)(C(F)(F)F)C(F)(F)F)=N\NC(N)=O ... > 10 µM
5. O=C(NCC1CC1)c1ccc(-c2cccc(C(=O)NC3CC3)c2)cc1 ... > 25 µM

Kindly give each listed record's TGI.
1. IC[P+]1(c2ccccc2)CCCC1
2. CCC1(O)C(=O)OCc2c1cc1n(c2=O)Cc2cc3ccccc3nc2-1 (stereo unspecified)
3. COc1cc(/C=C/C(=O)/C=C/c2cc(OC)c3c(c2)OCO3)cc2c1OCO2
4. O=C(Nc1cccc(Cl)c1)Nn1cnnc1
5. CCOC(=O)c1c(C)n(Cc2ccc(Cl)cc2Cl)c2c1cc(O)c1[nH]c3c(c12)CCCC3

Response:
> 100 µM
15.7 µM
12.9 µM
> 100 µM
53.5 µM

Query: Given the entry `c1ccc(-c2nc(-c3ccccn3)nc(-c3ccccn3)n2)nc1` , report its measured TGI.
Response: > 100 µM

* * *

- Tested on: RXF 393 renal
- Experimental Protocol: NCI tumour cell line growth inhibition, 48 h; in the data active = GI50 below about 0.43 µM; inactive = the rest
Select the correct class. Options are true (1) (active), false (0) (inactive) and nothing else.

Please review the following examples before continuing.
1. O=C(NCC1CC1)c1ccc(-c2cccc(C(=O)NC3CC3)c2)cc1 ... false (0)
2. COc1cc(/C=C/C(=O)/C=C/c2cc(OC)c3c(c2)OCO3)cc2c1OCO2 ... false (0)
3. CC(=O)c1c(C(F)(F)F)n([O-])c2ccccc2[n+]1=O ... false (0)
4. CC(C)c1ccc(Cn2ccc3c4c(N)nc(NC5CC5)nc4ccc32)cc1 ... true (1)

Query: Entry `C/C(=N/O)c1cccc(Nc2cc(-n3nnc4ccccc43)nc3ccccc23)c1` : call = ?
Response: false (0)

Query: Entry `N#CC(C#N)=C/C=C(\Cl)c1ccc(Cl)cc1` : call = ?
Response: false (0)

Query: Entry `COc1ccc2c(c1)C(=O)/C(=C/c1cccc(OCC(=O)c3ccccc3)c1)CC2` : call = ?
Response: true (1)

Query: Entry `O=C1/C(=C/c2ccc([N+](=O)[O-])cc2)CN(C(=O)CCN2CCC(=NO)CC2)C/C1=C\c1ccc([N+](=O)[O-])cc1` : call = ?
Response: false (0)

Query: Entry `Cc1ccc2cnc(N)c(C#Cc3cc(C(=O)Nc4ccc(CN5CCN(C)CC5)c(C(F)(F)F)c4)cnc3C)c2c1` : call = ?
Response: false (0)

* * *

I'd be grateful if you could share measured TGI for these entries.
- Tested on: SK-MEL-2 melanoma
- Experimental Protocol: NCI tumour cell line growth inhibition, 48 h

Past entries and their recorded results:
1. O=C(Nc1ccccc1F)c1cc2ccc(O)cc2oc1=Nc1cccc(F)c1 ... 62.6 µM
2. CC(=O)OCc1c2ccccc2c(C)c2c1cc(F)c1ccccc12 ... 35.2 µM
3. O=C(N/N=C/c1ccccc1O)N/N=C/c1ccccc1O ... > 100 µM
4. c1ccc(-c2csc3c4ccccc4c4ccccc4[n+]23)cc1 ... 7.71 µM

Kindly give each listed record's TGI.
1. Nc1ncn([C@@H]2S[C@H](CO)[C@@H](O)[C@@H]2F)c(=O)n1
2. Oc1cc(Cc2ccccc2)c(Cc2ccccc2)cc1O
3. CCO/C(=N/S(=O)(=O)C(F)(F)F)N(C(C)C)C(C)C
4. Cc1ccc(C(=N)c2ccccc2Cc2cccc3ccccc23)c2ccccc12

Response:
["> 100 µM", "> 10 µM", "> 100 µM", "> 100 µM"]

Kindly give each listed record's TGI.
1. Clc1ccc(-c2cn3ccnc3c(-c3ccc(Cl)cc3)n2)cc1
2. COc1cc2c(c3c1c(=O)c1ccccc1n3C)C=CC1(CCCC1)O2
3. C/C=C/C(C#N)O[Si](C)(C)C (stereo unspecified)

Response:
> 100 µM
33.6 µM
> 100 µM

* * *

- Test system: HS 578T breast
- Experimental Protocol: NCI tumour cell line growth inhibition, 48 h
I'd be grateful if you could share measured TGI for these entries.

Past entries and their recorded results:
1) O=c1[nH]c2nc3ccccc3c(=O)n2/c1=C/c1ccc(Cl)cc1 ... 65.2 µM
2) Cc1ccc(C(=N)c2ccccc2Cc2cccc3ccccc23)c2ccccc12 ... > 100 µM
3) Nc1nc2ccc(-c3nc4ccc5[nH]ncc5c4c4c3CCC4)cc2s1 ... 3.13 µM

Turning to the following compound.
Query: Given the entry `C=CCc1c(Cl)nc(Cl)nc1Cl` , report its measured TGI.
Response: 4.14 µM

* * *

- System: HOP-62 NSCLC
- Experimental Protocol: NCI tumour cell line growth inhibition, 48 h
Readout Type: TGI

Kindly give each listed record's TGI.
1. Clc1ccc(-c2cn3ccnc3c(-c3ccc(Cl)cc3)n2)cc1
2. N=C1C(O)C2(I)c3ccccc3N3C(=N)C(O)C4c5ccccc5N1C4C32 (stereo unspecified)
3. c1ncn(C23C4C5C6C4C2C6C53)n1 (stereo unspecified)
4. CCC1(O)C(=O)OCc2c1cc1n(c2=O)Cc2cc3ccccc3nc2-1 (stereo unspecified)
5. C#CCNC(CSSCC(N)C(=O)O)C(=O)O (stereo unspecified)
6. O=c1cc(-c2cccs2)[nH]c2cc3c(cc12)OCO3
7. CC(C)(C)c1ccccc1N1C(=O)c2ccc3c4c(ccc(c24)C1=O)N(c1ccccc1C(C)(C)C)C3=O
8. Cc1c(/C=N/NC(=O)c2ccccc2O)c(=O)n(-c2ccccc2)n1C

Response:
> 100 µM
> 100 µM
> 100 µM
0.319 µM
> 100 µM
39.4 µM
> 100 µM
> 100 µM

Kindly give each listed record's TGI.
1. CC1=C(C(=O)Nc2ccccc2C)C(c2ccc(Cl)cc2)C(C(=O)Nc2ccccc2C)=C(C)N1
2. O=C(c1ccc2ccccc2c1)c1c(C(F)(F)F)n([O-])c2ccc(C(F)(F)F)cc2[n+]1=O

Response:
["> 100 µM", "3.58 µM"]

Kindly give each listed record's TGI.
1. COc1ccc([C@H]2[C@H]3COC(=O)[C@H]3C(C#N)=C3Sc4ccccc4N32)cc1
2. C1CSCCCSCCCSCCCSCCCSCCCSCCCSCCCSC1
3. O=c1[nH]c(Nc2ccccc2)nc2c1ncn2CC(O)CSCCO (stereo unspecified)
4. CCC/C(Cl)=N\OC(=O)Nc1ccc(F)cc1

Response:
> 100 µM
> 100 µM
> 100 µM
38.2 µM

Kindly give each listed record's TGI.
1. Cc1cc2c(C)nn(Cc3ccccc3)c2c(C(=O)O)c1C
2. CCSCCCSCCSCC
3. COc1cc(Cl)cc(=O)c(O)c1OC

Response:
1: > 100 µM; 2: > 100 µM; 3: > 100 µM

Kindly give each listed record's TGI.
1. COc1cc(/C=C/C(=O)/C=C/c2cc(OC)c3c(c2)OCO3)cc2c1OCO2
2. N#CC(C#N)=C/C=C(\Cl)c1ccc(Cl)cc1
3. CC[O-].CC[O-].O=C([CH-]C(=O)c1ccccc1)CCCCCCCCC(=O)[CH-]C(=O)c1ccccc1.[Ti+4]

Response:
["> 100 µM", "31.3 µM", "> 100 µM"]

Kindly give each listed record's TGI.
1. N#CC(N)=Nc1ccccc1
2. CC(=O)c1c(C(F)(F)F)n([O-])c2ccccc2[n+]1=O
3. O=C1/C(=C/c2ccc([N+](=O)[O-])cc2)CN(C(=O)CCN2CCC(=NO)CC2)C/C1=C\c1ccc([N+](=O)[O-])cc1
4. C=CCOC(=O)N1c2ccc(O[Si](C)(C)C(C)(C)C)cc2[C@@]23O[C@@]24[C@@H]1C#C/C=C\C#C[C@]3(O)C(OC)(OC)C[C@@H]4C
5. O=c1[nH]/c(=C/c2ccc(OCc3ccccc3)cn2)c(=O)[nH]/c1=C/c1ccccc1
6. COc1cccc(N2C(=O)CSC2c2cccc(Oc3ccccc3)c2)c1 (stereo unspecified)
7. CC(=O)O[C@H]1CC(C)(C)C(=C=C/C(C)=C/C=C/C=C/C=C(C)/C=C2C=C(/C=C/[C@@]34O[C@]3(C)C[C@@H](O)CC4(C)C)C(=O)O/2)[C@](C)(O)C1
8. O=C1C=CC(=O)c2c1ccc1c3ccccc3n(Cc3ccc([N+](=O)[O-])cc3)c21

Response:
["> 100 µM", "11.9 µM", "6.97 µM", "> 100 µM", "> 100 µM", "> 100 µM", "32 µM", "> 100 µM"]

Kindly give each listed record's TGI.
1. C[C@H](c1ccccc1)N1C(=O)[C@@H](O)[C@H]1[C@H](CO)OCc1ccccc1
2. COC(=O)/C(=N\NC(C)(C)C)C(C(=O)OC)C(=O)C(=O)Nc1cc(Cl)ccc1Cl (stereo unspecified)

Response:
1. > 100 µM
2. > 100 µM

Kindly give each listed record's TGI.
1. O=C(O)c1nc(NCc2nc3cc(Cl)ccc3o2)n[nH]1
2. CO/N=C(\COc1ccc2c(c1)[nH]c1ccccc12)c1ccc(OC)cc1
3. O=c1ncccn1[C@@H]1O[C@H](CO)[C@H](O)C1O (stereo partly specified)
4. C[C@@H](NC(C#N)c1ccco1)c1ccccc1 (stereo partly specified)

Response:
["> 100 µM", "64 µM", "> 100 µM", "> 100 µM"]

These measurements were taken from PubChem BioAssay (NCI).
